Molecular target: Antigen 1 (Ab1 target) expressed on HEK293 / HEK-293F cells
Sequence (P06756 31-1048, chain 1 of 2): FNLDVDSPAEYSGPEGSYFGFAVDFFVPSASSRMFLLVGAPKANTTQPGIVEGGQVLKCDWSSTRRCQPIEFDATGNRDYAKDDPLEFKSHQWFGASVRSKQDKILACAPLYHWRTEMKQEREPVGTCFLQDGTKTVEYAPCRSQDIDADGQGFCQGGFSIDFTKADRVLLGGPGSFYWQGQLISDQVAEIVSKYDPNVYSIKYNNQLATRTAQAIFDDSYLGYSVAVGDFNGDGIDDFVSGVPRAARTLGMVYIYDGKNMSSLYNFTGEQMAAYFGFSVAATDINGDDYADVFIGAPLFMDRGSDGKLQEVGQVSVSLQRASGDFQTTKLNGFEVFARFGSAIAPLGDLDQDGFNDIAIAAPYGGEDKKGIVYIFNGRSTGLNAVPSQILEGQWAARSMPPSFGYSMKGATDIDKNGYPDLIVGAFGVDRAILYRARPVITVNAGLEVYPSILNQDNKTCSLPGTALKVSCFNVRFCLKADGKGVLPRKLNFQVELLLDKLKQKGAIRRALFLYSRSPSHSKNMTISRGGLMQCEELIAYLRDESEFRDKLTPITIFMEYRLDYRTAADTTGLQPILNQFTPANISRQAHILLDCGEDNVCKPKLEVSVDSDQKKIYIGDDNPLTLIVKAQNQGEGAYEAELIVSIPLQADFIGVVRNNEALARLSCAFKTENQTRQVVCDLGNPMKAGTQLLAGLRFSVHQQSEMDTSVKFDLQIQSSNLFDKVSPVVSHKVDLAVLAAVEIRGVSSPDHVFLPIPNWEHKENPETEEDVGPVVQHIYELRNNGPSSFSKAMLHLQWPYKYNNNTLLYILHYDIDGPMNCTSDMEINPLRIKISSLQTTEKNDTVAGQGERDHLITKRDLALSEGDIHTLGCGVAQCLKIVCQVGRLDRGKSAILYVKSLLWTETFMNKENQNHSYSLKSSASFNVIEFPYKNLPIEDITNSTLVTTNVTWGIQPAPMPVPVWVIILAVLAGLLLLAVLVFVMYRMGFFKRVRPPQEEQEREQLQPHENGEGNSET
Sequence (P18564 22-788, chain 2 of 2, further chain): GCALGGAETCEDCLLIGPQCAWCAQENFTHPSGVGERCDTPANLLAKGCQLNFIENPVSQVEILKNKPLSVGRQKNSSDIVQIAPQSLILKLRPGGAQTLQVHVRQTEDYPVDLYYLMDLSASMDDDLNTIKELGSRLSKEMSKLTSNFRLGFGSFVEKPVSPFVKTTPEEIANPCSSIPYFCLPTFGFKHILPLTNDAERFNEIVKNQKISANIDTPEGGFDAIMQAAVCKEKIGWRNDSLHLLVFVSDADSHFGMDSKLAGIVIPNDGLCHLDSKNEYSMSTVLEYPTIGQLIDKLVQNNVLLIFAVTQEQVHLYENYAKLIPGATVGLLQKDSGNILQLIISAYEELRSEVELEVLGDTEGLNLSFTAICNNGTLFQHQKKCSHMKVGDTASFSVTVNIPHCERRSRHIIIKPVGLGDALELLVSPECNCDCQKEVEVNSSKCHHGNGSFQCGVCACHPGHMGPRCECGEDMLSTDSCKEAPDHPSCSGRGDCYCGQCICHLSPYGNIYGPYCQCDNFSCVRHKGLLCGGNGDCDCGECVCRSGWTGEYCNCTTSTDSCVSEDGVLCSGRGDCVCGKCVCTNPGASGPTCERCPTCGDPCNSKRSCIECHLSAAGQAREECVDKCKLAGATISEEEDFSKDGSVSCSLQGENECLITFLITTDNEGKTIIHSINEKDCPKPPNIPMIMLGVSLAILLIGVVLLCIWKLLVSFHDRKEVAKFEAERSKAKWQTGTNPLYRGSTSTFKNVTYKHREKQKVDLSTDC
Test: saturation binding FACS, HEK293 cells
observed-property: pEC50
One number for each entry, as −log10 of the molar value.

Worked cases, pEC50 given:
>>> obs_value("Vel-IPV-Ab1 Coil 129 (antibody, part only; not given: Ab1 heavy and light chains, part only) heavy, part: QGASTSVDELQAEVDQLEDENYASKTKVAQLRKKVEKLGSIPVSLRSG light, part: QGASTTVAQLEEKVKTLRAENYEYKSEVQRLEEQVAQLGSIPVSLRSG")
8.59
>>> obs_value("Vel-IPV-Ab1 Coil 124 (antibody, part only; not given: Ab1 heavy and light chains, part only) heavy, part: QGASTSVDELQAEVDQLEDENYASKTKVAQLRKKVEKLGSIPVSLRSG light, part: QGASTTVAQLEEKVKTLRAENYEWKSEVQRLEEQVAQLGSIPVSLRSG")
7.85

The record that follows has no pEC50 shown yet.
Incoming: Give the measured pEC50 for Vel-IPV-Ab1 Coil 116 (antibody, part only; not given: Ab1 heavy and light chains, part only) heavy, part: QGASTSVDELQAEVDQLEDENYAAKTKVAQLRKKVEKLGSIPVSLRSG light, part: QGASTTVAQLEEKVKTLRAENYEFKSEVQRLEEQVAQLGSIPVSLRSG
Outgoing: 8.12

Every entry's value here was drawn from patent US20240376200A1.
